Test system: HT-29
Experiment: Cytotoxicity against human colon HT-29 cell line
Format: functional, cell-based
pIC50: −log10 of the molar value.
Each entry below lists one item and its recorded pIC50 value.
recordedMetric: pIC50

CCOC(=O)Nc1cc(COC(=O)CCC(=O)Nc2cc(C(=O)NCCN(C)C)n(C)c2)cc(Nc2c3ccccc3nc3ccccc23)c1
6.64
CN(C)CCNC(=O)c1cc(NC(=O)CCC(=O)Nc2cc(CO)cc(Nc3c4ccccc4nc4ccccc34)c2)cn1C
5.77

###

Overview of recorded pIC50 for various molecules
Assay: Cytotoxicity against human nasopharyngeal carcinoma BM-1
Type: functional
pIC50: −log10 of the molar value.
recordedMetric: pIC50

CCOC(=O)Nc1cc(COC(=O)CCC(=O)Nc2cc(C(=O)NCCN(C)C)n(C)c2)cc(Nc2c3ccccc3nc3ccccc23)c1
7.10
CN(C)CCNC(=O)c1cc(NC(=O)c2cc(NC(=O)CCCC(=O)Nc3cc(CO)cc(Nc4c5ccccc5nc5ccccc45)c3)cn2C)cn1C
4.11
CCOC(=O)Nc1cc(COC(=O)CCCC(=O)Nc2cc(C(=O)NCCN(C)C)n(C)c2)cc(Nc2c3ccccc3nc3ccccc23)c1
7.10
CN(C)CCNC(=O)c1cc(NC(=O)c2cc(NC(=O)CCC(=O)Nc3cc(CO)cc(Nc4c5ccccc5nc5ccccc45)c3)cn2C)cn1C
5.07
CN(C)CCNC(=O)c1cc(NC(=O)CCC(=O)Nc2cc(CO)cc(Nc3c4ccccc4nc4ccccc34)c2)cn1C
5.15
CCOC(=O)Nc1cc(CO)cc(Nc2c3ccccc3nc3ccccc23)c1
6.42
CN(C)CCNC(=O)c1cc(NC(=O)CCCC(=O)Nc2cc(CO)cc(Nc3c4ccccc4nc4ccccc34)c2)cn1C
4.13
Nc1cc(CO)cc(Nc2c3ccccc3nc3ccccc23)c1
6.07
CCOC(=O)Nc1cc(COC(=O)CCCC(=O)Nc2cc(C(=O)Nc3cc(C(=O)NCCN(C)C)n(C)c3)n(C)c2)cc(Nc2c3ccccc3nc3ccccc23)c1
6.31

###

Test system: Nucleic Acid
Experiment: Percentage of protein-linked DNA breaks.
Format: functional
Parameters: concentration or dose not given beside the values
TRUE if Activity is below 4%. FALSE if not; exact matches included in FALSE.

CN(C)CCNC(=O)c1cc(NC(=O)CCCC(=O)Nc2cc(CO)cc(Nc3c4ccccc4nc4ccccc34)c2)cn1C
TRUE
CCOC(=O)Nc1cc(COC(=O)CCCC(=O)Nc2cc(C(=O)NCCN(C)C)n(C)c2)cc(Nc2c3ccccc3nc3ccccc23)c1
FALSE
CCOC(=O)Nc1cc(COC(=O)CCCC(=O)Nc2cc(C(=O)Nc3cc(C(=O)NCCN(C)C)n(C)c3)n(C)c2)cc(Nc2c3ccccc3nc3ccccc23)c1
FALSE
CN(C)CCNC(=O)c1cc(NC(=O)CCC(=O)Nc2cc(CO)cc(Nc3c4ccccc4nc4ccccc34)c2)cn1C
TRUE
CCOC(=O)Nc1cc(CO)cc(Nc2c3ccccc3nc3ccccc23)c1
FALSE
CN(C)CCNC(=O)c1cc(NC(=O)c2cc(NC(=O)CCC(=O)Nc3cc(CO)cc(Nc4c5ccccc5nc5ccccc45)c3)cn2C)cn1C
TRUE
CCOC(=O)Nc1cc(COC(=O)CCC(=O)Nc2cc(C(=O)NCCN(C)C)n(C)c2)cc(Nc2c3ccccc3nc3ccccc23)c1
FALSE
CN(C)CCNC(=O)c1cc(NC(=O)c2cc(NC(=O)CCCC(=O)Nc3cc(CO)cc(Nc4c5ccccc5nc5ccccc45)c3)cn2C)cn1C
TRUE

###

Test system: HT-29
Test: Cytotoxicity against human colon HT-29 cell line
Format: functional, cell-based
pIC50: −log10 of the molar value.
Returns one of condition met or condition not met; condition met when pIC50 is >= 6.

CCOC(=O)Nc1cc(CO)cc(Nc2c3ccccc3nc3ccccc23)c1
condition met
CN(C)CCNC(=O)c1cc(NC(=O)c2cc(NC(=O)CCC(=O)Nc3cc(CO)cc(Nc4c5ccccc5nc5ccccc45)c3)cn2C)cn1C
condition not met
CCOC(=O)Nc1cc(COC(=O)CCCC(=O)Nc2cc(C(=O)Nc3cc(C(=O)NCCN(C)C)n(C)c3)n(C)c2)cc(Nc2c3ccccc3nc3ccccc23)c1
condition met
CN1CCN(c2ccc3nc(-c4ccc5nc(-c6ccc(OCCCC(=O)Nc7cc(CO)cc(Nc8c9ccccc9nc9ccccc89)c7)cc6)[nH]c5c4)[nH]c3c2)CC1
condition not met
